From: paper PMC6477152

B1: FIP200ΔN1115:Luciferase [human] / GST:SINTBADaa5-85 [human] (parent complex)
chain 1: ENYQVGLAELRTLMTIEKDQCISELISRHEEESNILKAELNKVTSLHNQAFEIEKNLKEQIIELQSKLDSELSALERQKDEKITQQEEKYEAIIQNLEKDRQKLVSSQEQDREQLIQKLNCEKDEAIQTALKEFKLEREVVEKELLEKVKHLENQIAKSPAIDSTRGDSSSLVAELQEKLQEEKAKFLEQLEEQEKRKNEEMQNVRTSLIAEQQTNFNTVLTREKMRKENIINDLSDKLKSTMQQQERDKDLIESLSEDRARLLEEKKKLEEEVSKLRSSSFVPSPYVATAPELYGACAPELPGESDRSAVETADEGRVDSAMETSMMSVQENIHMLSEEKQRIMLLERTLQLKEEENKRLNQRLMSQSMSSVSSRHSEKIAIRDFQVGDLVLIILDERHDNYVLFTVSPTLYFLHSESLPALDLKPGEGASGASRRPWVLGKVMEKEYCQAKKAQNRFKVPLGTKFYRVKAVSWNKKV
chain 2: FEDDISILTQEALGPSEVWLDSPGDPSLGGDMCSASHFALITAYGDIKERLGGLERENATLRRRLKVYEIKYPLISDFGEE

Variants of: B1
Assay Name: LUMIER assay; HEK293ET cell lysates; bacterially expressed GST bait; read off a plot
Observable: response

Worked cases, answers included:
>>> observed("chain 1 L347A")
"~99 fold binding"
>>> observed("chain 1 L353A")
"~170 fold binding"
>>> observed("chain 1 T350A")
"~180 fold binding"
>>> observed("chain 1 E348A")
"~200 fold binding"
>>> observed("chain 1 A452S")
"~59 fold binding"

Reported response ( chain 1 Q352A ) = ~210 fold binding

Reported response ( chain 1 R349A ) = ~170 fold binding

Reported response ( chain 1 L351A ) = ~110 fold binding
